# Test system: OVCAR-5
# Assay method text: NCI-60 SRB screening (one-dose and five-dose)
# Type: cell-based, human
# Conditions used: OVCAR-5, 10 μM, 48 h
Observable: Growth Percent (%)

* C[C@H]1[C@@H]2[C@H]3CC[C@@H]4[C@@]5(C)CC[C@H](O)C(C)(C)[C@@H]5CC[C@@]4(C)[C@]3(C)CC[C@]23CO[C@@]1(C)C(C(=O)/C=C/c1cccnc1)C3 (stereo partly shown) [Compound 4] | 120.62
* C[C@H]1[C@@H]2[C@H]3CC[C@@H]4[C@@]5(C)CC[C@H](O)C(C)(C)[C@@H]5CC[C@@]4(C)[C@]3(C)CC[C@]23CO[C@@]1(C)[C@@H](C(=O)/C=C/c1ccco1)C3 [Compound 5] | 102.21
* COC(=O)[C@]12CC[C@@H](C(C)=O)[C@@H]1[C@H]1CC[C@@H]3[C@@]4(C)C/C(=C\c5cccnc5)C(=O)C(C)(C)[C@@H]4CC[C@@]3(C)[C@]1(C)CC2 [Compound 8] | 114.28
* CC(=O)O[C@H]1CC[C@]2(C)[C@H]3CC[C@@H]4[C@H]5[C@H](C)[C@@]6(C)OC[C@]5(CC[C@@]4(C)[C@]3(C)CC[C@H]2C1(C)C)CC6C(C)=O (stereo partly shown) [Compound 1] | 97.46
* COC(=O)[C@]12CC[C@@H](C(=O)/C=C/c3cccnc3)[C@@H]1[C@H]1CC[C@@H]3[C@@]4(C)C/C(=C\c5cccnc5)C(=O)C(C)(C)[C@@H]4CC[C@@]3(C)[C@]1(C)CC2 [Compound 7] | −62.74
* C[C@H]1[C@@H]2[C@H]3CC[C@@H]4[C@@]5(C)C/C(=C\c6cccnc6)C(=O)C(C)(C)[C@@H]5CC[C@@]4(C)[C@]3(C)CC[C@]23CO[C@@]1(C)[C@@H](C(=O)/C=C/c1cccnc1)C3 [Compound 6] | −4.00
* CC(=O)[C@H]1C[C@]23CC[C@]4(C)[C@H](CC[C@@H]5[C@@]6(C)CCC(=O)C(C)(C)[C@@H]6CC[C@]54C)[C@H]2[C@H](C)[C@@]1(C)OC3 [Compound 2] | 96.55

Sourced from paper PMC8509773
